Target: 3-hydroxy-3-methylglutaryl-coenzyme A reductase (Rattus norvegicus)
Sequence (whole entry): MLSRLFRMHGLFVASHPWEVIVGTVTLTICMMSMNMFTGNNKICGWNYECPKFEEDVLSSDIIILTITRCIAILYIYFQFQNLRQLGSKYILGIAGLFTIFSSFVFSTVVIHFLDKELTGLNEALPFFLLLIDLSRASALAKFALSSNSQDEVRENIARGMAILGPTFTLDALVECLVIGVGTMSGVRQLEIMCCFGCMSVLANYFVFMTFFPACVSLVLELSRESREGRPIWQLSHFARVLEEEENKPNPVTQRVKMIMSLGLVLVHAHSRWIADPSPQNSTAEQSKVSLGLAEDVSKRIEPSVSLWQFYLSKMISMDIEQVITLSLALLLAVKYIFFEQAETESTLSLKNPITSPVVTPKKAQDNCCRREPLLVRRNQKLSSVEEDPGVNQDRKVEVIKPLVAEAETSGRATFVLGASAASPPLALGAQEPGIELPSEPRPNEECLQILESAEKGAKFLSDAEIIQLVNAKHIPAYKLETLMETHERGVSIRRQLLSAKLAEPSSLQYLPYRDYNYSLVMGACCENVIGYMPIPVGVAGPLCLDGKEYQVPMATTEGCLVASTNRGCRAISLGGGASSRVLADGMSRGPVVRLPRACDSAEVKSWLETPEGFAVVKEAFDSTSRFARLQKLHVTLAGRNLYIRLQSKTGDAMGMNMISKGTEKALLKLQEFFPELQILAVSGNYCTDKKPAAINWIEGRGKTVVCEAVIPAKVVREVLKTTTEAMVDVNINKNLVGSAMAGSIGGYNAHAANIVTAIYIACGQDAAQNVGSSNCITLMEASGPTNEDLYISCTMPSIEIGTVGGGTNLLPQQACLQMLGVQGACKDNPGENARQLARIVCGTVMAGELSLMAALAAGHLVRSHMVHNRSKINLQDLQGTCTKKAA
Experiment: Inhibitory activity against partially purified rat liver HMG CoA reductase at 5 ug/ml concentration
// inhibition lookup, one value per entry
Put down the number, then write its unit next to it.

molecule: O=C1C[C@@H](O)C[C@@H](/C=C/c2ccc(Cl)cc2Cl)O1 (racemic)
inhibition: 6%

molecule: O=C1C[C@H](O)C[C@@H](/C=C/c2ccc(Cl)cc2Cl)O1 (racemic)
inhibition: 41%

molecule: O=C1C[C@H](O)CC(c2cccc3ccccc23)O1 (stereo partly specified)
inhibition: 16%

molecule: O=C1C[C@H](O)CC(CCc2cccc3ccccc23)O1 (stereo partly specified)
inhibition: 19%

Task item: Report inhibition for O=C1C[C@H](O)CC(CCC2CCCCC2)O1 (stereo partly specified) please.
Reply: 23%

Task item: // inhibition lookup, key: O=C1C[C@H](O)CC(CCCc2cccc3ccccc23)O1 (stereo partly specified)
Reply: 7%

Task item: # input molecule: `O=C1C[C@H](O)C[C@@H](CCc2ccc(Cl)cc2Cl)O1` ; wanted: its inhibition
Reply: 57%

Task item: Would you mind telling me what inhibition value was observed for `O=C1C[C@H](O)C[C@@H](CC[C@@H]2CCC[C@@H]3CCCC[C@@H]32)O1` ?
Reply: 15%

Task item: Please look up its inhibition: O=C1C[C@H](O)CC(CC[C@@H]2CC[C@H]3CCCC[C@@H]3C2)O1 (stereo partly specified)
Reply: 13%

Task item: Name the reported inhibition value associated with the molecule `O=C1C[C@H](O)C[C@@H](/C=C/c2ccccc2)O1`
Reply: 3%

Task item: // query inhibition value for entry COC(/C=C/c1ccc(Cl)cc1Cl)CC(O)CC(=O)O (stereo unspecified)
Reply: 0%
